Data origin, for the record: ChEMBL document CHEMBL3526053

- target: PEPT1 (Homo sapiens, UniProt P46059)
- Sequence (P46059 whole entry): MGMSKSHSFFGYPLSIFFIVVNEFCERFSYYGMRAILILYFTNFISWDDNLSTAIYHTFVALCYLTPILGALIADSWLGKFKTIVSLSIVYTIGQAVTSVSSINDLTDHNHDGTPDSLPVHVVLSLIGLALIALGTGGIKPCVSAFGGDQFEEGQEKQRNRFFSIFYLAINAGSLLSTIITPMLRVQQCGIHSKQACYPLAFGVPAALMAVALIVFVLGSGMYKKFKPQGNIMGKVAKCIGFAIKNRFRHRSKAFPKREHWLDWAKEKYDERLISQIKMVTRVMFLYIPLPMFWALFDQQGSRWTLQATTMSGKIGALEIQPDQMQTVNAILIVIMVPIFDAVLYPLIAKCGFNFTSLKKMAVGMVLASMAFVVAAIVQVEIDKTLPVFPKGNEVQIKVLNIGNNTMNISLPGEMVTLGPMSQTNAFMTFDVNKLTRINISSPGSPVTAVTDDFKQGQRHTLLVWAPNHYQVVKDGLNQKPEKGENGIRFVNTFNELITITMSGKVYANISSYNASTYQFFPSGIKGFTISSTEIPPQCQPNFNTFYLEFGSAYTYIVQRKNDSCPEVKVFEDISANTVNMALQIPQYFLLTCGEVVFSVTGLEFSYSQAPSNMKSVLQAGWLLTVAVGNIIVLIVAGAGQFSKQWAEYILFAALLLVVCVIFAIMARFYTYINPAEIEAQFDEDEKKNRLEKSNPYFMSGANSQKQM
- measurementNotes: Drug uptake in Pichia pastoris GS115 expressing human recombinant PEPT1 at 5 uM after 30 mins by dual-channel liquid scintillation counting analysis relative to vector control
- Assay type: ADME
- conditionDescription: read-out: FC
valueKind: uptake ratio at 0.5 h, 5 µM
Write the value as a bare number.

Challenge: Field request: uptake ratio at 0.5 h, 5 µM | item: [3H]C(C(=O)O)N(C)C(=O)CN (stereo unspecified)
Response given: 30
